Target: T1, serum resistance-associated protein (SRA) from Trypanosoma brucei rhodesiense, recombinant SRA (SEQ ID NO: … (Trypanosoma brucei rhodesiense, UniProt O96637 31-274))
T1 construct: also called SRA protein
T1 sequence: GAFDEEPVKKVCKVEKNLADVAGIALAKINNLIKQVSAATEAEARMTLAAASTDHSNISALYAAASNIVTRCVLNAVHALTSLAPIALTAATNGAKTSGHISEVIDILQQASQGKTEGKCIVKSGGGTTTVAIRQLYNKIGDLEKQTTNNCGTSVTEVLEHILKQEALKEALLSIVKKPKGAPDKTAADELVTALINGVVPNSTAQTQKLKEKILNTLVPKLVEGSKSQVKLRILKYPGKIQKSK
Assay: SPR, mAb captured, pH 4.5, 25C; competitor biotin-apoL1 peptide

- binder: "H2aM10285N (antibody, V domains shown, Chimeric antibody, human variable domains and mouse constant domains (mouse Fc, prefix H2aM); also called H2M10285N) VH: QVQLVQSGAEVKKPGSSVKVSCKASGGTFTNFAISWVRQAPGLGLEWMGGIIPFVGTATYEQKFQGRVSITADESTRTAYMELSSLRYDDTAVYYCARWFSGSGGDFDYWGQGTLVTVSS VL: AIQMTQSPSSLSASVGDRVTITCRASQGIGNDLGWYQQRRGTAPKLLIYAASSLQSGVPSRFSGSGSGTDFTLTISSLQPEDFATYYCLQDFTFPRTFGQGTKVEIK"
  units: "%"
  % Blocking, apoL1 peptide: 94
- binder: "H1H10041P (antibody, V domains shown, Fully human antibody with human IgG1 Fc (prefix H1H)) VH: QVQLVQSGAEVRKPGSSMKVSCATSGGNFRSYTINWVRQAPGQGLEWMGGVFPAVGTRIYAQKFQGRVTISTDESTTIAYMELNSLVPEDTAVYYCARSFNSPFDFWDQGTLVTVSS VL: AIQMTQSPSSLSASVGDRVTLTCRASQDIRNDLHWFQQTPGKAPRLLIYSASNLQSGVPSRFSGTGSGTDFTLTFSSLQPEDFATYYCLQDYSYPYTFGQGTKLEIK"
  units: "%"
  % Blocking, apoL1 peptide: 97
- binder: "H1H10061P (antibody, V domains shown, Fully human antibody with human IgG1 Fc (prefix H1H)) VH: QVQLVESGGGVVQPGNSLRLSCAASGFTFSAYGMHWVRQAPGKGLEWVAVISYDGSNEFYADSVKGRFTIFRDNSKNMLYLQMNSLRVEDTSIYYCAKDRGLGVYYFFYGMDVWGQGTTVTVSS VL: DIVMTQSPDSLVVSLGERATINCKSSQSLLYSSSNNNYLTWYQQKPGRPPKLLIYWASTRESGVPDRFSGSGSGTDFTLTISSLQAEDVAIYYCQQNYITPLTFGGGTKVEIK"
  units: "%"
  % Blocking, apoL1 peptide: 100
